- tested.on: hCRTH2 receptor (Homo sapiens (Human), UniProt Q9Y5Y4)
- Sequence (Q9Y5Y4 whole entry): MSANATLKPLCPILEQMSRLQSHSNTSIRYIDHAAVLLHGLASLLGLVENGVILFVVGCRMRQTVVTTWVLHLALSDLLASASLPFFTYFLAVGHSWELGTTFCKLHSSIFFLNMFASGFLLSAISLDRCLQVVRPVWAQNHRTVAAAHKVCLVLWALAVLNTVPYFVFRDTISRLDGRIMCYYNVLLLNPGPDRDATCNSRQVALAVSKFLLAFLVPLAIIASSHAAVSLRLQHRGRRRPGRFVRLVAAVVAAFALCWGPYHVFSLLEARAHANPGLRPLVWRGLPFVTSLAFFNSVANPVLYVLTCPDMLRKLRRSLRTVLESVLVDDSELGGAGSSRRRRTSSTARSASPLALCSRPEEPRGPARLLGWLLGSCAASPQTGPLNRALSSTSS
pIC50: −log10 of the molar value.
property.measured: pIC50

I. CCOc1ccc(CC(=O)O)cc1-c1ccc(F)c2c1CN(C(=O)OCC(C)C)CC2 [Example 377]
II. COc1ccc(CC(=O)O)cc1-c1ccc(F)c2c1CN(C(=O)/C=C/c1ccccc1)CC2 [Example 85]
III. COc1ccc(-c2ccc(F)c3c2CN(C(=O)OCc2ccccc2)CC3)cc1CC(=O)O [Example 13]
Data request: # rank by pIC50, ascending (min first) Use the labels to give the ranking in the order requested.
Data returned: III, II, I
(III: 7.14, II: 7.45, I: 8.47)

a. CCOc1ccc(CC(=O)O)cc1-c1ccc(F)c2c1CN(C(=O)OCC1CCCCC1)CC2 [Example 396]
b. CC(C)COc1ccc(CC(=O)O)cc1-c1ccc(F)c2c1CN(C(=O)OCc1ccccc1)CC2 [Example 198]
c. COc1ccc(CC(=O)O)cc1-c1ccc(F)c2c1CN(C(=O)CCN1CCc3ccccc31)CC2 [Example 59]
d. COc1ccc(CC(=O)O)cc1-c1ccc(F)c2c1CN(C(=O)C1CCc3ccccc3O1)CC2 (racemic) [Example 115]
e. COc1ccc(CC(=O)O)cc1-c1ccc(F)c2c1CN(C(=O)CCc1ncccn1)CC2 [Example 93]
Data request: Rank by pIC50 (largest to smallest). Use the labels to give the ranking in the order requested.
Data returned: b, a, c, d, e

a. COc1ccc(CC(=O)O)cc1-c1ccc(F)c2c1CN(C(=O)[C@@H]1C[C@H]1c1ccc(F)cc1)CC2 (racemic) [Example 1]
b. COc1ccc(CC(=O)O)cc1-c1ccc(Cl)c2c1CN(C(=O)CCc1ccccc1)CC2 [Example 76]
c. CC(C)Oc1ccc(CC(=O)O)cc1-c1ccc(F)c2c1CN(C(=O)[C@@H]1C[C@H]1c1ccccc1)CC2 [Example 27]
d. CC(C)(C)Oc1ccc(CC(=O)O)cc1-c1ccc(F)c2c1CN(C(=O)[C@@H]1C[C@H]1c1ccccc1)CC2 [Example 428]
Data request: Rank by pIC50 (largest to smallest). Use the labels to give the ranking in the order requested.
Data returned: a, d, c, b
(a: 8.70, d: 8.43, c: 7.89, b: 7.37)
